MEASURED QUANTITY: melting point

{"columns": ["MOLECULE", "MEASURED QUANTITY", "RESULT"],
 "data": [
  ["Cn1ccnc1SCc1cc2cc(Cl)ccc2oc1=O", "melting point", "256.2 to 257.2 °C"],
  ["Cn1ccnc1SCc1cc2ccccc2oc1=O", "melting point", "244.2 to 244.8 °C"],
  ["O=c1oc2ccc(F)cc2cc1CSc1nccn1[C@@H]1O[C@H](CO)[C@@H](O)[C@H]1O", "melting point", "171.2 to 172.4 °C"],
  ["O=c1oc2ccccc2cc1CSc1ncc[nH]1 [Compound 3a, 2-[(Coumarin-3’-yl)methylthio]imidazole]", "melting point", "252 to 252.8 °C"],
  ["COc1cccc2cc(CSc3ncc[nH]3)c(=O)oc12", "melting point", "269.8 to 270.6 °C"],
  ["O=c1oc2ccc(Cl)cc2cc1CSc1nccn1[C@@H]1O[C@H](CO)[C@@H](O)[C@H]1O", "melting point", "178.8 to 179.6 °C"],
  ["O=c1oc2ccc(Cl)cc2cc1CSc1ncc[nH]1", "melting point", "266.2 to 270 °C"],
  ["O=c1oc2ccc(Br)cc2cc1CSc1ncc[nH]1", "melting point", "276.8 to 277.4 °C"],
  ["COc1cccc2cc(CSc3nccn3[C@@H]3O[C@H](CO)[C@@H](O)[C@H]3O)c(=O)oc12", "melting point", "169.6 to 170.4 °C"],
  ["O=c1oc2ccc(Br)cc2cc1CSc1nccn1[C@@H]1O[C@H](CO)[C@@H](O)[C@H]1O", "melting point", "188.8 to 189.4 °C"],
  ["O=c1oc2ccc(F)cc2cc1CSc1ncc[nH]1", "melting point", "258.6 to 259.4 °C"],
  ["O=c1oc2ccccc2cc1CSc1nccn1[C@@H]1O[C@H](CO)[C@@H](O)[C@H]1O", "melting point", "164.6 to 165.4 °C"]
]}

###

Listing: EC50 of selected compounds
system: HCV genotype 1b subgenomic Huh 5-2 replicon system; assay: Antiviral effect on HCV 1b subgenomic replicon replication in Huh 5-2 cells; type: cell-based, Hepatitis C virus; details: Hepatitis C virus, Huh-5-2

{"columns": ["COMPOUND", "EC50 [µM]"],
 "data": [
  ["Nc1nc2c(nc(SCc3cc4cc(F)ccc4oc3=O)n2[C@@H]2O[C@H](CO)[C@@H](O)[C@H]2O)c(=O)[nH]1 [Compound 11b]", 102],
  ["O=c1oc2ccc(Br)cc2cc1CSc1nccn1[C@@H]1O[C@H](CO)[C@@H](O)[C@H]1O", 19],
  ["O=c1oc2ccccc2cc1CSc1ncc[nH]1 [Compound 3a, 2-[(Coumarin-3’-yl)methylthio]imidazole]", 30],
  ["Cc1ccc2oc(=O)c(CSc3nc4c(=O)[nH]c(N)nc4n3[C@@H]3O[C@H](CO)[C@@H](O)[C@H]3O)cc2c1 [Compound 11f]", 103],
  ["O=c1oc2ccc(F)cc2cc1CSc1nc2c(=O)[nH]cnc2n1[C@@H]1O[C@H](CO)[C@@H](O)[C@H]1O", 73],
  ["COc1cccc2cc(CSc3nccn3[C@@H]3O[C@H](CO)[C@@H](O)[C@H]3O)c(=O)oc12", 34],
  ["O=c1oc2ccc(Cl)cc2cc1CSc1ncc[nH]1", 9.7],
  ["Cn1ccnc1SCc1cc2cc(Cl)ccc2oc1=O", 15]
]}

###

assay: Anti-metabolic effect on host cell metabolism (MTS method) in Huh 5-2 replicon cells; format: cell-based; conditions: human, Huh 5-2 cells (HCV genotype 1b subgenomic replicon), concentration reducing host cell metabolism by 50%, average of triplicate determinations

{"columns": ["COMPOUND", "UOM", "CC50"],
 "data": [
  ["COc1cccc2cc(CSc3ncc[nH]3)c(=O)oc12", "µM", 173],
  ["O=c1oc2ccc(F)cc2cc1CSc1ncc[nH]1", "µM", 83],
  ["Cc1ccc2oc(=O)c(CSc3nc4c(=O)[nH]c(N)nc4n3[C@@H]3O[C@H](CO)[C@@H](O)[C@H]3O)cc2c1 [Compound 11f]", "µM", 103],
  ["Cc1ccc2oc(=O)c(CSc3nc4c(=O)[nH]cnc4n3[C@@H]3O[C@H](CO)[C@@H](O)[C@H]3O)cc2c1", "µM", 106],
  ["O=c1oc2ccccc2cc1CSc1ncc[nH]1 [Compound 3a, 2-[(Coumarin-3’-yl)methylthio]imidazole]", "µM", 122]
]}

###

test: Anti-metabolic effect on host cell metabolism (MTS method) in Huh 5-2 replicon cells; assay type: cell-based; conditions: human, Huh 5-2 cells (HCV genotype 1b subgenomic replicon), concentration reducing host cell metabolism by 50%, average of triplicate determinations
Lab note: cut-off is 100 µM. Strictly less in CC50 is Criterion met. Exactly 100 µM or more is Criterion not met.

{"columns": ["COMPOUND", "ANSWER LABEL"],
 "data": [
  ["O=c1oc2ccccc2cc1CSc1nc2c(=O)[nH]cnc2n1[C@@H]1O[C@H](CO)[C@@H](O)[C@H]1O [Compound 9a, 8-[(Coumarin-3′-yl)methylthio]inosine]", "Criterion not met"],
  ["COc1cccc2cc(CSc3nccn3[C@@H]3O[C@H](CO)[C@@H](O)[C@H]3O)c(=O)oc12", "Criterion not met"],
  ["O=c1oc2ccc(Cl)cc2cc1CSc1ncc[nH]1", "Criterion met"],
  ["O=c1oc2ccc(F)cc2cc1CSc1nccn1[C@@H]1O[C@H](CO)[C@@H](O)[C@H]1O", "Criterion not met"],
  ["O=c1ccc2ccccc2o1", "Criterion not met"],
  ["O=c1oc2ccccc2cc1CSc1nccn1[C@@H]1O[C@H](CO)[C@@H](O)[C@H]1O", "Criterion not met"],
  ["O=c1oc2ccc(Br)cc2cc1CSc1nc2c(=O)[nH]cnc2n1[C@@H]1O[C@H](CO)[C@@H](O)[C@H]1O", "Criterion met"],
  ["Cn1ccnc1SCc1cc2cc(Cl)ccc2oc1=O", "Criterion met"],
  ["O=c1oc2ccc(Br)cc2cc1CSc1nccn1[C@@H]1O[C@H](CO)[C@@H](O)[C@H]1O", "Criterion not met"],
  ["O=c1oc2ccc(Br)cc2cc1CSc1ncc[nH]1", "Criterion met"],
  ["Cn1ccnc1SCc1cc2ccccc2oc1=O", "Criterion met"],
  ["O=c1oc2ccc(F)cc2cc1CSc1nc2c(=O)[nH]cnc2n1[C@@H]1O[C@H](CO)[C@@H](O)[C@H]1O", "Criterion not met"],
  ["O=c1oc2ccc(Cl)cc2cc1CSc1nccn1[C@@H]1O[C@H](CO)[C@@H](O)[C@H]1O", "Criterion met"]
]}

###

system: Huh 5-2 cells; assay: Anti-metabolic effect on host cell metabolism (MTS method) in Huh 5-2 replicon cells; assay type: cell-based; details: concentration reducing host cell metabolism by 50%, average of triplicate determinations
MEASURED QUANTITY: CC50

{"columns": ["STRUCTURE AS SMILES", "RESULT"],
 "data": [
  ["c1c[nH]cn1", "> 500 µM"]
]}

###

Tested on: HCV genotype 1b subgenomic Huh 5-2 replicon system
Assay: Antiviral effect on HCV 1b subgenomic replicon replication in Huh 5-2 cells
Format: cell-based, Hepatitis C virus
Details: Hepatitis C virus, Huh-5-2
Experimental: The antiviral activity of conjugated compounds 3a–g, 7a–e, 9a,b,d–f, and 11b,e,f in the HCV genotype 1b subgenomic Huh 5-2 replicon system was evaluated according to established procedures. On the basis of the dose-response curves that were obtained, the concentration of a compound that inhibited virus replication by 50% (i.e., EC50) and the concentration of compound that reduced host cell metabolism by 50% (i.e., CC50) were obtained. […]
Listing: log10 EC50 of selected molecules
MEASURED QUANTITY: log10 EC50 (log10 of the value in µM)

{"columns": ["MOLECULE", "log10 EC50"],
 "data": [
  ["Cc1ccc2oc(=O)c(CSc3nc4c(=O)[nH]cnc4n3[C@@H]3O[C@H](CO)[C@@H](O)[C@H]3O)cc2c1 [Compound 9f]", 2.03],
  ["O=c1oc2ccc(F)cc2cc1CSc1nccn1[C@@H]1O[C@H](CO)[C@@H](O)[C@H]1O [Compound 7b]", 1.41],
  ["COc1cccc2cc(CSc3nc4c(=O)[nH]c(N)nc4n3[C@@H]3O[C@H](CO)[C@@H](O)[C@H]3O)c(=O)oc12 [Compound 11e]", 2.00],
  ["COc1cccc2cc(CSc3nc4c(=O)[nH]cnc4n3[C@@H]3O[C@H](CO)[C@@H](O)[C@H]3O)c(=O)oc12 [Compound 9e]", 2.01],
  ["Cn1ccnc1SCc1cc2ccccc2oc1=O [Compound 3f]", 0.83],
  ["O=c1oc2ccc(Br)cc2cc1CSc1ncc[nH]1 [Compound 3d]", 0.71],
  ["O=c1oc2ccc(F)cc2cc1CSc1ncc[nH]1 [Compound 3b]", 0.86],
  ["O=c1oc2ccccc2cc1CSc1nccn1[C@@H]1O[C@H](CO)[C@@H](O)[C@H]1O [Compound 7a]", 1.77],
  ["O=c1oc2ccc(Br)cc2cc1CSc1nc2c(=O)[nH]cnc2n1[C@@H]1O[C@H](CO)[C@@H](O)[C@H]1O [Compound 9d]", 1.85]
]}
